meta.source: a melting point compilation (Tetko et al.)

QUANTITY_NAME: melting point

> print(dat)
                         smiles.data  endpoint.value
1               CNC(=O)c1cccc(CCl)c1     61 to 63 °C
2  C=CC(=O)Nc1ccc(OC)cc1[N+](=O)[O-]   124 to 126 °C
3    CCNS(=O)(=O)c1ccc(C)c(C(=O)O)c1   181 to 183 °C
4               NC(=O)c1ccc(N)c(F)c1   152 to 154 °C
5      O=C(Nc1ccc(O)cc1)c1ccc(Cl)cc1   246 to 248 °C

* * *

QUANTITY_NAME: melting point

> print(dat)
                                    compound  endpoint.value
 1  CC1Cc2cc(S(N)(=O)=O)cc(Cl)c2O1 (configuration not stated)   174 to 176 °C
 2        CCCCn1c(=O)[nH]c(=O)c2c1nc(CCl)n2C   222 to 224 °C
 3                             NC(=S)N1CCCC1   140 to 142 °C
 4                  Cc1nn(C)c(C(F)F)c1C(=O)O   165 to 167 °C
 5  O=C(O)C(c1ccc(Br)cc1)N1CCCC1 (configuration not stated)   214 to 216 °C
 6                    Nc1nnc(-c2ccncc2)[nH]1   271 to 273 °C
 7              Cc1cc(C)n(-c2ccc(CC#N)cc2)n1     45 to 55 °C
 8  COc1ccc(C)cc1N1CC(C(=O)O)CC1=O (configuration not stated)   171 to 173 °C
 9                  CC(=O)c1c(C)nn(C(C)C)c1C     74 to 76 °C
10            COc1ccc(-c2nnc(SCC(=O)O)o2)cc1   140 to 143 °C
11                       Cc1noc(COCC(=O)O)n1     76 to 78 °C
12  CCC(CC(=O)O)c1ccc(OC)cc1 (configuration not stated)     83 to 85 °C
13                     Cc1c(Cl)cccc1OCC(=O)O   143 to 145 °C
14                 CC(C)(C)NS(=O)(=O)CC(=O)O     93 to 95 °C
15                N#Cc1c(NC(=O)CCl)sc2c1CCC2   176 to 178 °C
16                CC(C)S(=O)(=O)Cc1ccc(N)cc1   134 to 136 °C
17               CN(C)S(=O)(=O)c1cccc(CCl)c1     45 to 47 °C
18                        Cc1nc(CC(N)=NO)no1   142 to 144 °C
19               O=C(O)c1ccc(Oc2ccccc2Cl)cc1   144 to 146 °C
20                   Brc1ccc(OCCc2ccccc2)cc1     49 to 51 °C
21                       Cc1cc(SC#N)cc(C)c1N     82 to 84 °C
22  Nn1c(S)nnc1C1CCOC1 (configuration not stated)   116 to 118 °C
23                CCOC(=O)c1ncn(-c2ccccc2)n1     49 to 51 °C
24  CC(c1cc(Cl)ccc1Cl)n1nccc1N (configuration not stated)     94 to 96 °C
25  CC(N)c1ccc(S(N)(=O)=O)cc1 (configuration not stated)   148 to 150 °C
26                  O=c1cc(CO)nc2ccc(Br)cn12   204 to 206 °C
27  O=C(O)c1ccn(-c2c(Cl)cc([N+](=O)[O-])cc2Cl)n1   206 to 208 °C
